target: Low molecular weight phosphotyrosine protein phosphatase (Homo sapiens) (UniProt P24666); test: inhibition of human LMPTP-A enzyme – biochemical, fluorescence intensity, uHTS, primary screen (AID 651560); conditions: recombinant LMPTP-A, OMFP fluorogenic substrate, at 20 µM, hits give high values;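 note: plate controls were DMSO wells with enzyme plus substrate for no effect and substrate without enzyme for full effect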
Sequence (P24666 whole entry, looked up): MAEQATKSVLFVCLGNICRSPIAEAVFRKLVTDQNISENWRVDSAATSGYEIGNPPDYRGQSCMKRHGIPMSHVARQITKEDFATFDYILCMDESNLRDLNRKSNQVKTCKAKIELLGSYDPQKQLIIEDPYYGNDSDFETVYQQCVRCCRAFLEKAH
Hit rate of the full screen: of about 360,000 compounds, about 820 (0.23%) were called active. Shown is part of a subset that was picked to be rich in actives.
Parameter: inhibition. Scope: all listed entries.
Measure: inhibition (%)

• COc1ccc(-c2oc3ncn(Cc4ccco4)c(=N)c3c2-c2ccc(OC)cc2)cc1 = 3.1
• O=C(Cn1c(=O)n(Cc2ccco2)c(=O)c2ccccc21)NCC1CCCO1 (stereo not drawn) = -0.056
• Cn1c(=O)[nH]c(=O)c2c1nc(NCCCn1ccnc1)n2Cc1cccc(Br)c1 = -1.82
